assay: Toxic dose was determined by the rotarod test in mice activity value ranges from 153.02-189.96; assay type: toxicity, organism-based; conditions: mouse, in vivo
readout_label: TD50 (mg/kg)
Express it in mg/kg; write the number only.

Ask: I would be grateful if you could share the reported TD50 for CC(NC(=O)c1ccc(N)cc1)c1ccccc1 (stereo unspecified) .
Reply: 171

====

assay: Toxic dose was determined by the rotarod test in mice; activity value ranges from 156.61-251.07; format: toxicity, organism-based; details: mouse, in vivo
readout_label: TD50
Entry format: amount then unit.

Ask: Entry under review: Cc1ccc(NC(=O)c2ccc(N)cc2)cc1C . Reported TD50?
Reply: 194 mg/kg

====

test: Toxic dose was determined by the rotarod test in mice; activity value ranges from 130.89-161.13; format: toxicity, organism-based; conditions: mouse, in vivo
readout_label: TD50 (mg/kg)
API: value field is a number in mg/kg; no unit string.

Ask: Endpoint output: TD50 of Cc1cccc(NC(=O)c2ccc(N)cc2)c1 . Value?
Reply: 143

====

tested on: Mus musculus; test: Toxicity tested by rotarod test for neurologic deficit at interval of 30 min when 100 mg/kg was administered intraperitoneally; shows activity; type: organism-based; design: dose 100 mg/kg, route intraperitoneal; details: in vivo, ip, 0.5 h
readout_label: Toxicity

Nc1ccc(C(=O)Nc2ccccc2)cc1    Activity
Cc1ccc(NC(=O)c2ccc(N)cc2)cc1    Activity
Cc1ccc(NC(=O)c2ccc(N)cc2)cc1C    Activity

====

test: Toxic dose was determined by the rotarod test in mice; activity value ranges from 88.85-119.90; format: toxicity, organism-based; conditions: mouse, in vivo
readout_label: TD50

Ask: Which TD50 is reported for this compound? Cc1cccc(NC(=O)c2ccc(N)cc2)c1C
Reply: 104 mg/kg

====

assay: Toxic dose was determined by the rotarod test in mice; activity value ranges from 556.77-815.69; type: toxicity, organism-based; conditions: mouse, in vivo
readout_label: TD50

Ask: I am curious: what TD50 value has been reported for CC(C)c1ccccc1NC(=O)c1ccc(N)cc1 ?
Reply: 709 mg/kg

====

assay: Toxic dose was determined by the rotarod test in mice; activity value ranges from 40.62-57.10; type: toxicity, organism-based; conditions: mouse, in vivo
readout_label: TD50 (mg/kg)
Value expressed in mg/kg; do not type the unit.

Ask: // query TD50 value for entry CCc1cccc(C(C)C)c1NC(=O)c1ccc(N)cc1
Reply: 49.1

====

assay: Toxic dose was determined by the rotarod test in mice; activity value ranges from 98.01-127.65; format: toxicity, organism-based; details: mouse, in vivo
readout_label: TD50 (mg/kg)
The reply should contain only the number, in mg/kg.

Ask: Returns the measured TD50 for the input compound. Input: Nc1ccc(C(=O)Nc2ccccc2)cc1
Reply: 111

====

assay: Toxic dose was determined by the rotarod test in mice; assay type: toxicity, organism-based; conditions: mouse, in vivo
readout_label: TD50

Ask: Suppose we examine the compound Cc1cccc(C(C)C)c1NC(=O)c1ccc(N)cc1 ; what TD50 value has been reported?
Reply: > 1500 mg/kg

====

experiment: Protective index as the ratio of TD50 value against MES to that of ED50 value against MES.; type: ADME; details: read-out: PI
readout_label: selectivity ratio
Keep it simple and answer with nothing but the number.

Solved cases (3 shown):
Nc1ccc(C(=O)Nc2ccccc2)cc1    2.2
CCc1cccc(C(C)C)c1NC(=O)c1ccc(N)cc1    2.95
Cc1cccc(NC(=O)c2ccc(N)cc2)c1C    4.11

Ask: Give its selectivity ratio value. Item: Cc1ccc(NC(=O)c2ccc(N)cc2)cc1C
Reply: 4.59

Ask: Consider the compound shown here: Cc1cccc(NC(=O)c2ccc(N)cc2)c1 What is its recorded selectivity ratio?
Reply: 3.03

Ask: May I ask what selectivity ratio has been recorded for CC(NC(=O)c1ccc(N)cc1)c1ccccc1 (stereo not drawn) ?
Reply: 9.5

Ask: Form field: reported selectivity ratio of CC(C)c1ccccc1NC(=O)c1ccc(N)cc1
Reply: 8.7

Source: ChEMBL document CHEMBL1123037
